A collection of compounds and their measured IC50
target under test: HCV1b NS5B polymerase delta 21 (Hepatitis C virus genotype 1b)
Construct: purified HCV1b NS5B polymerase delta 21
Sequence (P26663 2420-2989): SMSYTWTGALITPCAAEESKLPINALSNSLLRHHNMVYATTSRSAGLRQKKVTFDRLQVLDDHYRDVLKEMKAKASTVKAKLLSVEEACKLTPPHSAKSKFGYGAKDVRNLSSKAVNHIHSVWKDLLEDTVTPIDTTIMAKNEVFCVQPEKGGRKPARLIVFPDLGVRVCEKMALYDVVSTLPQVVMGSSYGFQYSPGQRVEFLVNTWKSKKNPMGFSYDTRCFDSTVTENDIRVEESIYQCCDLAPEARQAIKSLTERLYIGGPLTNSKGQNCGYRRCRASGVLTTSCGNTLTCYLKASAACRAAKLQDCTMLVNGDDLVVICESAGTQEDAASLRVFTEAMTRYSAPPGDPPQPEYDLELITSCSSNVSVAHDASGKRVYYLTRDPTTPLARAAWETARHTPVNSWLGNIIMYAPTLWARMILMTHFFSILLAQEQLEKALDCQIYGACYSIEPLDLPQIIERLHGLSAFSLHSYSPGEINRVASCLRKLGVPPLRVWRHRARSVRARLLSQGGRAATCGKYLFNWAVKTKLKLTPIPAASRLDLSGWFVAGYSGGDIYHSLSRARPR
method notes: RNA-Dependent RNA HCV NS5B (Polymerase) Assay and IC50 Determination
Assay type: biochemical

Answered cases to consult:
Data request: I'd like to know its IC50. The compound in question is CC1CCC(C2=C(c3cc(C#CC(C)(C)C)sc3C(=O)O)CN(CCF)CC2)CC1 (stereo not shown)
Data returned: < 3 µM

Data request: I'd like to know its IC50. The compound in question is CC1CCC(C2=C(c3cc(C#CC4CC4)sc3C(=O)O)CCN(CCO)C2)CC1 (stereo not shown)
Data returned: < 3 µM

Data request: I'd like to know its IC50. The compound in question is CC1CCC(C2=C(c3cc(C#CC4(C)CC4)sc3C(=O)O)CCN(C)C2)CC1 (stereo not shown)
Data returned: < 3 µM

---
Data request: I'd like to know its IC50. The compound in question is CCN1CCC(c2cc(-c3ccc(NC(=O)c4cc(C)on4)cc3)sc2C(=O)O)=C(C2CCC(C)CC2)C1 (stereo not shown)
Data returned: 3 to 10 µM

====

target under test: HCV1b NS5B polymerase delta 21 (Hepatitis C virus genotype 1b)
Construct: purified HCV1b NS5B polymerase delta 21
method notes: RNA-Dependent RNA HCV NS5B (Polymerase) Assay and IC50 Determination
Format: biochemical
pIC50: −log10 of the molar value.
A collection of compounds and their measured pIC50

Answered cases to consult:
Data request: I'd like to know its pIC50. The compound in question is CC1CCC(C2=C(c3cc(C#CC(C)(C)C)sc3C(=O)O)CN(CC3CCOC3)CC2)CC1 (stereo not drawn)
Data returned: > 5.52

Data request: I'd like to know its pIC50. The compound in question is CCN1CCC(c2cc(-c3ccc(C(=O)Nc4ccccn4)cc3)sc2C(=O)O)=C(C2CCC(C)CC2)C1 (stereo not drawn)
Data returned: > 5.52

---
Data request: I'd like to know its pIC50. The compound in question is CCN1CCC(c2cc(-c3ccc(NC(=O)C4CCCO4)cc3)sc2C(=O)O)=C(C2CCC(C)CC2)C1 (stereo not drawn)
Data returned: > 5.52

Data request: I'd like to know its pIC50. The compound in question is CCOC(=O)c1sc(-c2ccc(NC(=O)c3cscn3)cc2)cc1C1=C(C2CCC(C)CC2)CN(C)CC1 (stereo not drawn)
Data returned: < 5.00

Data request: I'd like to know its pIC50. The compound in question is CC1CCC(C2=C(c3cc(-c4cc(F)c(NC(=O)c5cscn5)cc4F)sc3C(=O)O)CCN(C)C2)CC1 (stereo not drawn)
Data returned: > 5.52

Data request: I'd like to know its pIC50. The compound in question is CC1CCC(C2=C(c3cc(-c4ccc(NC(=O)OC(C)(C)C)cc4)sc3C(=O)O)CCN(C)C2)CC1 (stereo not drawn)
Data returned: < 5.00

Data request: I'd like to know its pIC50. The compound in question is CC(=O)OCOC(=O)c1sc(-c2ccc(NC(=O)c3cscn3)cc2)cc1C1=C(C2CCC(C)CC2)CN(C)CC1 (stereo not drawn)
Data returned: < 5.00

Data request: I'd like to know its pIC50. The compound in question is CCN1CCC(c2cc(-c3ccc(NC(=O)c4csc(C)n4)cc3)sc2C(=O)O)=C(C2CCC(C)CC2)C1 (stereo not drawn)
Data returned: > 5.52

Data request: I'd like to know its pIC50. The compound in question is CC1CCC(C2=C(c3cc(-c4ccccc4)sc3C(=O)O)CCN(Cc3cccnc3)C2)CC1 (stereo not drawn)
Data returned: > 5.52

Data request: I'd like to know its pIC50. The compound in question is COC(=O)c1sc(-c2ccc(NC(=O)c3cscn3)cc2)cc1C1=C(C2CCC(C)CC2)CN(C)CC1 (stereo not drawn) [Example 013A]
Data returned: > 5.52

Data request: I'd like to know its pIC50. The compound in question is CC1CCC(C2=C(c3cc(C#CC(C)(C)C)sc3C(=O)O)CN(CCCO)CC2)CC1 (stereo not drawn)
Data returned: > 5.52

Data request: I'd like to know its pIC50. The compound in question is CC1CCC(C2=C(c3cc(-c4ccc(/C=C/c5cscn5)cc4)sc3C(=O)O)CCN(C)C2)CC1 (stereo not drawn)
Data returned: < 5.00

Data request: I'd like to know its pIC50. The compound in question is CC1CCC(C2=C(c3cc(-c4ccccc4)sc3C(=O)O)CCN(Cc3ccc4ccccc4n3)C2)CC1 (stereo not drawn)
Data returned: < 5.00

====

A collection of compounds and their measured pIC50
target under test: HCV1b NS5B polymerase delta 21 (Hepatitis C virus genotype 1b)
Construct: purified HCV1b NS5B polymerase delta 21
method notes: RNA-Dependent RNA HCV NS5B (Polymerase) Assay and IC50 Determination
Type: biochemical
Method: RNA-Dependent RNA HCV NS5B (Polymerase) Assay and IC50 Determination In vitro RNA-dependent RNA polymerase activity was determined in a reaction mixture (50 μL) containing 50 mM Tris-HCl, pH 7.5, 5 mM MgCl2, 1 mM dithiothreitol, 0.5% Triton® X-100, 10 μM of UTP, 0.1-0.5 μCi of α-^32P UTP (Perkin Elmer Life Sciences), 1 μg of polyA:U16 (Midland Oligo), and 0.6 μg of purified HCV1b NS5B polymerase delta 21. […] IC50 values were calculated using GraFit 6 and GraphPad Prism 5 from triplicate assays.
pIC50: −log10 of the molar value.

Data request: I'd like to know its pIC50. The compound in question is CCCC(=O)N1CCC(c2cc(-c3ccccc3)sc2C(=O)O)=C(C2CCC(C)CC2)C1 (stereo not shown) [Example 077]
Data returned: 5.00 to 5.52

---
Data request: I'd like to know its pIC50. The compound in question is CC1CCC(C2=C(c3cc(-c4ccccc4)sc3C(=O)O)CCN(Cc3cncnc3)C2)CC1 (stereo not shown) [Example 157]
Data returned: < 5.00

Data request: I'd like to know its pIC50. The compound in question is Cc1oc(=O)oc1COC(=O)c1sc(-c2ccc(NC(=O)c3cscn3)cc2)cc1C1=C(C2CCC(C)CC2)CN(C)CC1 (stereo not shown) [Example 108]
Data returned: > 5.52

====

target under test: HCV1b NS5B polymerase delta 21 (Hepatitis C virus genotype 1b)
Construct: purified HCV1b NS5B polymerase delta 21
method notes: RNA-Dependent RNA HCV NS5B (Polymerase) Assay and IC50 Determination
Type: biochemical
A collection of compounds and their measured IC50

Answered cases to consult:
Data request: Field: IC50 (HCV1b NS5B polymerase delta 21 (Hepatitis C virus genotype 1b)). Entry: CC1CCC(C2=C(c3cc(C#CC4(c5ccccc5)CC4)sc3C(=O)O)CCN(C)C2)CC1 (stereo not drawn)
Data returned: > 10 µM

Data request: Field: IC50 (HCV1b NS5B polymerase delta 21 (Hepatitis C virus genotype 1b)). Entry: CCNC(=O)N1CCC(c2cc(-c3ccccc3)sc2C(=O)O)=C(C2CCC(C)CC2)C1 (stereo not drawn)
Data returned: 3 to 10 µM

Data request: Field: IC50 (HCV1b NS5B polymerase delta 21 (Hepatitis C virus genotype 1b)). Entry: CC1CCC(C2=C(c3cc(-c4ccccc4)sc3C(=O)O)CCN(Cc3cn(C)c4ccccc34)C2)CC1 (stereo not drawn)
Data returned: 3 to 10 µM

Data request: Field: IC50 (HCV1b NS5B polymerase delta 21 (Hepatitis C virus genotype 1b)). Entry: CCN1CCC(c2cc(-c3ccc(NC(=O)c4ccco4)cc3)sc2C(=O)O)=C(C2CCC(C)CC2)C1 (stereo not drawn)
Data returned: < 3 µM

Data request: Field: IC50 (HCV1b NS5B polymerase delta 21 (Hepatitis C virus genotype 1b)). Entry: Cc1cc(C)n2nc(CN3CCC(c4cc(-c5ccc(NC(=O)c6cscn6)cc5)sc4C(=O)O)=C(C4CCC(C)CC4)C3)nc2n1 (stereo not drawn)
Data returned: < 3 µM

Data request: Field: IC50 (HCV1b NS5B polymerase delta 21 (Hepatitis C virus genotype 1b)). Entry: CC1CCC(C2=C(c3cc(-c4ccccc4)sc3C(=O)O)CN(C)CC2)CC1 (stereo not drawn)
Data returned: < 3 µM

---
Data request: Field: IC50 (HCV1b NS5B polymerase delta 21 (Hepatitis C virus genotype 1b)). Entry: CCN1CCC(c2cc(-c3ccc(NC(=O)c4cc[nH]n4)cc3)sc2C(=O)O)=C(C2CCC(C)CC2)C1 (stereo not drawn)
Data returned: < 3 µM

Data request: Field: IC50 (HCV1b NS5B polymerase delta 21 (Hepatitis C virus genotype 1b)). Entry: CC1CCC(C2=C(c3cc(-c4ccccc4)sc3C(=O)O)CCN(CC3CC3)C2)CC1 (stereo not drawn)
Data returned: < 3 µM

Data request: Field: IC50 (HCV1b NS5B polymerase delta 21 (Hepatitis C virus genotype 1b)). Entry: CCCC(C)C#Cc1cc(C2=C(C3CCC(C)CC3)CN(CC)CC2)c(C(=O)O)s1 (stereo not drawn)
Data returned: > 10 µM

Data request: Field: IC50 (HCV1b NS5B polymerase delta 21 (Hepatitis C virus genotype 1b)). Entry: Cc1nn(C)cc1CN1CCC(c2cc(C#CC(C)(C)C)sc2C(=O)O)=C(C2CCC(C)CC2)C1 (stereo not drawn)
Data returned: < 3 µM

Data request: Field: IC50 (HCV1b NS5B polymerase delta 21 (Hepatitis C virus genotype 1b)). Entry: CC1CCC(C2=C(c3cc(C#CC(C)(C)C)sc3C(=O)O)CCN(Cc3c(C(F)(F)F)nn(C)c3Cl)C2)CC1 (stereo not drawn)
Data returned: > 10 µM

Data request: Field: IC50 (HCV1b NS5B polymerase delta 21 (Hepatitis C virus genotype 1b)). Entry: CC1CC=C(C2=C(c3cc(-c4ccccc4)sc3C(=O)O)CCN(C)C2)CC1 (stereo not drawn)
Data returned: < 3 µM

Data request: Field: IC50 (HCV1b NS5B polymerase delta 21 (Hepatitis C virus genotype 1b)). Entry: CC1CCC(C2=C(c3cc(-c4ccc(NC(=O)c5cscn5)cc4)sc3C(=O)O)CN(C)CC2)CC1 (stereo not drawn)
Data returned: < 3 µM

Data request: Field: IC50 (HCV1b NS5B polymerase delta 21 (Hepatitis C virus genotype 1b)). Entry: CC1CCC(C2=C(c3cc(-c4ccccc4)sc3C(=O)O)CCN(C(=O)c3nccnc3N)C2)CC1 (stereo not drawn)
Data returned: > 10 µM

Data request: Field: IC50 (HCV1b NS5B polymerase delta 21 (Hepatitis C virus genotype 1b)). Entry: CCN1CCC(c2cc(C#CC(C)(C)NC(=O)c3cscn3)sc2C(=O)O)=C(C2CCC(C)CC2)C1 (stereo not drawn)
Data returned: > 10 µM
